Molecular target: T1, rat APJ receptor (rat, UniProt Q9JHG3 1-377)
T1 sequence (looked up): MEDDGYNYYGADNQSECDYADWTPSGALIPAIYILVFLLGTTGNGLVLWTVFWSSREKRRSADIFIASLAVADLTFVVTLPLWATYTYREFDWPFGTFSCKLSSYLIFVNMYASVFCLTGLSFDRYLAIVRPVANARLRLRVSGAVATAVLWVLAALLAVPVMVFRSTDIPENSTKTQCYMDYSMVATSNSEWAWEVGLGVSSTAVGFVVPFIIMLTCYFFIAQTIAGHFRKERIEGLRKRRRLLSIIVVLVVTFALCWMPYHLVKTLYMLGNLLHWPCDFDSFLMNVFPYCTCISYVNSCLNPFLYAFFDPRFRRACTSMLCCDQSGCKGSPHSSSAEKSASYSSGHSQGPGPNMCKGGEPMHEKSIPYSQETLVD
Assay: cell-based or functional assay
Starred links: 1 amine or outer side, 2 acyl side, 3 side chain; linkers in the order of their positions; H or OH if unused. Non-standard residues stand in square brackets, D forms with d. Primed or numbered codes have the meaning given here. No end group written: not given here. *: point of attachment. rCha = cyclohexylalanine with ψ(CH2NH) reduced amide bond, C1CCC(C[C@@H](C[*:2])N[*:1])CC1; Pra′ = its azide, alkyne or alkene has reacted where a group follows in round brackets; dBip = N[C@H](Cc1ccc(-c2ccccc2)cc1)C(=O)O; Oic = O=C(O)[C@@H]1C[C@@H]2CCCC[C@@H]2N1; Phe(4-Cl) = N[C@@H](Cc1ccc(Cl)cc1)C(=O)O; Phe(4-I) = N[C@@H](Cc1ccc(I)cc1)C(=O)O; d1Nal = N[C@H](Cc1cccc2ccccc12)C(=O)O; NMeR = CN[C@@H](CCCNC(=N)N)C(=O)O; Tridecanoyl = CCCCCCCCCCCCC(=O)*; hArg = N=C(N)NCCCC[C@H](N)C(=O)O; β3hR = N=C(N)NCCC[C@H](N)CC(=O)O; Cha = N[C@@H](CC1CCCCC1)C(=O)O; NMeL = CN[C@@H](CC(C)C)C(=O)O; AC4Abu″ = not defined here; β3hP = O=C(O)C[C@@H]1CCCN1; Nle = CCCC[C@H](N)C(=O)O; Orn = NCCC[C@H](N)C(=O)O; BPhe = β-phenylalanine; AEEA = NCCOCCOCC(=O)O; BLeu = β-leucine; BLys = β-lysine
Friendly reminder: EC50 Rat APJ Receptor below 0.4 nM is Condition met, at or above is Condition not met.

[
  {
    "Binder": "[Orn]F[hArg][hArg]Q[hArg]P[β3hR][Cha]SHKG[Oic][Nle]P[Phe(4-Cl)] [apelin polypeptide SEQ ID NO: 696]",
    "Qualitative Label": "Condition met"
  },
  {
    "Binder": "Ac-RQRP[hArg][Cha]SHKG[Oic][Nle]P[Phe(4-Cl)]-OH (SMILES CCCC[C@H](NC(=O)[C@@H]1C[C@@H]2CCCC[C@@H]2N1C(=O)CNC(=O)[C@H](CCCCN)NC(=O)[C@H](Cc1c[nH]cn1)NC(=O)[C@H](CO)NC(=O)[C@H](CC1CCCCC1)NC(=O)[C@H](CCCCNC(=N)N)NC(=O)[C@@H]1CCCN1C(=O)[C@H](CCCNC(=N)N)NC(=O)[C@H](CCC(N)=O)NC(=O)[C@H](CCCNC(=N)N)NC(C)=O)C(=O)N1CCC[C@H]1C(=O)N[C@@H](Cc1ccc(Cl)cc1)C(=O)O) [apelin polypeptide SEQ ID NO: 17]",
    "Qualitative Label": "Condition not met"
  },
  {
    "Binder": "Ac-[Orn]F[hArg][hArg]Q[hArg]P[hArg][BLeu]SHKG[Oic][Nle]P[Phe(4-Cl)]-OH [apelin polypeptide SEQ ID NO: 30]",
    "Qualitative Label": "Condition not met"
  },
  {
    "Binder": "Ac-[Orn]F[hArg][hArg]Q[hArg]P[hArg][rCha]SHKG[Oic][Nle]P[Phe(4-Cl)]-OH (also: reduced amide bond (CH2NH) at residue 9) [apelin polypeptide SEQ ID NO: 42]",
    "Qualitative Label": "Condition met"
  },
  {
    "Binder": "[Orn]F[hArg][hArg]Q[NMeR]P[hArg][Cha]SHKG[Oic][Nle]P[Phe(4-Cl)] [apelin polypeptide SEQ ID NO: 671]",
    "Qualitative Label": "Condition met"
  },
  {
    "Binder": "Ac-[Pra′](20K‑mPEGReg)[Orn]F[hArg][hArg]QRP[hArg][NMeL]SHKG[Oic][Phe(4-I)]P[dBip]-OH [apelin polypeptide SEQ ID NO: 107]",
    "Qualitative Label": "Condition not met"
  },
  {
    "Binder": "[Orn]F[hArg][hArg]Q[hArg]P[hArg][Cha]SH[BLys]G[Oic][Nle]P[Phe(4-Cl)] [apelin polypeptide SEQ ID NO: 702]",
    "Qualitative Label": "Condition not met"
  },
  {
    "Binder": "[Orn]F[hArg][hArg]Q[hArg]P[hArg][Cha]SHKG[Oic][Nle]P[Phe(4-Cl)] [apelin polypeptide SEQ ID NO: 714]",
    "Qualitative Label": "Condition met"
  },
  {
    "Binder": "Tridecanoyl-[AC4Abu″][AEEA][AEEA][hArg]Q[dR]P[NMeR][Cha]SHKG[Oic][Nle][d1Nal]-OH (reading uncertain) [apelin polypeptide SEQ ID NO: 165]",
    "Qualitative Label": "Condition not met"
  },
  {
    "Binder": "[Orn][BPhe][hArg][hArg]Q[hArg]P[hArg][Cha]SHKG[Oic][Nle]P[Phe(4-Cl)] [apelin polypeptide SEQ ID NO: 687]",
    "Qualitative Label": "Condition met"
  },
  {
    "Binder": "Q[hArg]P[NMeR][Cha]SHKG[Oic][Nle]P[Phe(4-Cl)] [apelin polypeptide SEQ ID NO: 675]",
    "Qualitative Label": "Condition met"
  },
  {
    "Binder": "[Orn]F[hArg][hArg]Q[hArg][β3hP][hArg][Cha]SHKG[Oic][Nle]P[Phe(4-Cl)] [apelin polypeptide SEQ ID NO: 694]",
    "Qualitative Label": "Condition not met"
  }
]

Each recorded value in this set is attributed to patent US10941182.
